B1: HDV Ribozyme (parent)
chain: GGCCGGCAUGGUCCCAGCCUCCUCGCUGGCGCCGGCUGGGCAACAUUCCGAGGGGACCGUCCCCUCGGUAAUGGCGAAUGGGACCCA

- Variants of: B1
- ASSAY DETAILS: self-cleavage, relative activity (ratio to wild type); higher = more cleavage; co-transcriptional
Using self-cleavage as the sorting value, the categories are 0: < 0.1; 1: ≥ 0.1 and < 0.6; 2: ≥ 0.6

Query: Which class holds U65A A77U ?
Reply: 2

Query: Which class holds G53A C85G ?
Reply: 2

Query: Which class holds C7G G25C ?
Reply: 0

Query: Which class holds A83U C86A ?
Reply: 2

Query: Which class holds A45C C48G ?
Reply: 1

Query: Which class holds C18U U60A ?
Reply: 2

Query: Which class holds C48U G82C ?
Reply: 1

Query: Which class holds U47C C85G ?
Reply: 2

Query: Which class holds U47G G81C ?
Reply: 1

Query: Which class holds C3U C85U ?
Reply: 2

Query: Which class holds G5A C49G ?
Reply: 1

Query: Which class holds G2C G54C ?
Reply: 0

Query: Which class holds A16C G67U ?
Reply: 2

Query: Which class holds C22G A78U ?
Reply: 0

Query: Which class holds U60C A71G ?
Reply: 2

Query: Which class holds U60G G73C ?
Reply: 1

Query: Which class holds G11A G35A ?
Reply: 1

Query: Which class holds U72A G76A ?
Reply: 2

Query: Which class holds C85A A87G ?
Reply: 2

Query: Which class holds C3A G80A ?
Reply: 1

Query: Which class holds U79A G82C ?
Reply: 0

Query: Which class holds A43G C57A ?
Reply: 2

Query: Which class holds G38A A71C ?
Reply: 0

Query: Which class holds C14U C48U ?
Reply: 2

Query: Which class holds G38U G82A ?
Reply: 0

Query: Which class holds U9C U72C ?
Reply: 1

Query: Which class holds C44U C48A ?
Reply: 2

Query: Which class holds C26U ?
Reply: 2

Query: Which class holds C4U G39A ?
Reply: 1

Query: Which class holds G5A G76A ?
Reply: 1

Query: Which class holds G34A C48G ?
Reply: 1

Query: Which class holds C33U G80U ?
Reply: 1

Query: Which class holds C33G C66A ?
Reply: 1

Query: Which class holds G5U G68C ?
Reply: 1

Query: Which class holds C18U U60G ?
Reply: 2

Query: Which class holds G38A G81A ?
Reply: 1

Query: Which class holds A43G A87G ?
Reply: 2

Query: Which class holds G10A G29A ?
Reply: 0

Query: Which class holds G25A G82C ?
Reply: 0

Query: Which class holds G1C C24U ?
Reply: 0

Query: Which class holds G28C A71C ?
Reply: 0

Query: Which class holds C36U A42C ?
Reply: 1

Query: Which class holds C18A C32G ?
Reply: 0
